measurementTarget: T1, West Nile virus strain USA99b (strain 385-99), whole virus (West Nile virus strain 385-99 (USA99b))
T1 construct: also called WN virus; WNV
assayNotes: phage antibody ELISA on coated whole inactivated WNV
Exercise: state measured OD 492nm for each of the binders provided.
Answers are plain numbers, in OD 492nm.

Known OD 492nm results, listed for orientation:
SC04-311 (scFv) scFv: EVQLVQSGGGVVQPGRSLRLSCVASGFTFSKDAMHWVRQAPGKGLEWVAVISYDGSDKHYADSVKGRVTISRDNSRKTLYLRMDSLRAEDTALYYCARGYNSGHYFDYWGQGTLITVSSGTGGSGGTGSGTGGSTQSVLTQPPSVSAAPGQKVTISCSGTSSNIGDNYVSWYQHLPGTAPKLLIYDNNKRPSGIPDRFSGSKSGTSATLGVTGLQTGDEADYYCGTWDSSLTAVVFGGGTKLTVLG :: 1.04
SC04-283 (scFv) scFv: EVQLVQSGAEVKKSGESLKISCKGSGYTFNTYWIGWVRQMPGKGLEWMGIIYPGDSDTIYSPSFQGQVTISADKSISTAYLQWSSLKASDSAMYYCARLTFRRGYSGSDSFLPPGDFDYWGQGTLVTVSSGTGGSGGTGSGTGGSTDIQMTQSPSTLSASVGDRVTITCRASQSISSWLAWYQQKPGKAPNLLIYAASSLQSGVPSRFSGSGSGTDFTLTISSLQPDDSATYYCQQYNTYPLTFGGGTKVEIKR :: 1.21
SC04-299 (scFv) scFv: EVQLVETGGGVVQPGRSLRLSCAASGFTFSGYAMHWVRQAPGKGLDWVAVISYDGSEKYSADSVKGRFTISRDNSKNTLYLQMNSLRAEDTAVYYCAKESGGPIWYKYYGVDVWGQGTTVTVSSGTGGSGGTGSGTGGSTSYVLTQPPSLSAAPRQRVTISCSGSSSNIGNYGVNWYQQLPGKAPKLLIYYDDLLPSGVSDRFSGSKSGTSASLAISGLQSEDEGDYYCAAWDDTLSAWVFGGGTKLTVLG :: 1.07
SC04-271 (scFv) scFv: EVQLVETGAEVKKPGESLRISCKGSGYTFNNYWIGWVRQMPGKGLEWMGIIYPGDSDTRYSPSVQGHVTISADKSINTAYLQWSSLKASDTAVYYCARRPGYDYGFYYFDYWGQGTLVTVSSGTGGSGGTGSGTGGSTQSALTQPRSVSGSPGQSVTISCTGTSSDVGGYNYVSWYQHHPGKAPKLMIYDVSNRPLGVSNRFSGSKSGNTASLTISGLQAEDEADYYCSSYTSSSTYVFGTGTHLTVLS :: 0.984

Here is another binder to look at.
Any idea what OD 492nm was measured for SC04-289 (scFv) scFv: QMQLVQSGAEVKKPGESLRISCKGSGYSFTSNWITWVRQMPGKGLEWMGRIDPSDSYTNYSPSFQGHVTISADKSISTAYLQWSSLKASDTAMYYCARDVVGVGASDYYYYMDVWGKGTTVTVSSGTGGSGGTGSGTGGSTEIVLTQSPGTLSLSPGETATLSCRTSQSVSSSYLGWYQQKPGQAPRLLIYGASIRATGIPARFSGSGSGTEFTLTIDSLQSEDFAVYYCQQYNNWPPITFGQGTRLEIKR ?
0.759
